tested_target: wild-type HIV-1 protease (Human immunodeficiency virus type 1 group M subtype B)
experiment_description: Assay for inhibition of microbial expressed HIV protease
Format: biochemical
particulars: wild-type HIV-1 protease expressed in E. coli, peptide substrate, pH 5.5; read-out: Enzyme Inhibition - IC50

{"smiles_notation": "COC(=O)N[C@@H](Cc1ccccc1Cl)C(=O)N[C@@H](C)CCC[C@@H](CN)N(CCC(C)C)S(=O)(=O)c1ccc(N)cc1", "relation": ">", "IC50 / nM": 3}
{"smiles_notation": "CC[C@@H](CCC[C@@H](CO)N(CCC(C)C)S(=O)(=O)c1ccc(CO)cc1)NC(=O)[C@@H](NC(=O)OC)C(c1ccccc1)c1ccccc1", "relation": "=", "IC50 / nM": 0.015}
{"smiles_notation": "COC(=O)N[C@@H](Cc1ccccc1Br)C(=O)N[C@@H](C)CCC[C@@H](CO)N(CC(C)C)S(=O)(=O)c1ccc(CO)cc1", "relation": "=", "IC50 / nM": 0.055}
